# assayed_system: T1, TNFR1 (Homo sapiens, UniProt P19438)
# T1 chain: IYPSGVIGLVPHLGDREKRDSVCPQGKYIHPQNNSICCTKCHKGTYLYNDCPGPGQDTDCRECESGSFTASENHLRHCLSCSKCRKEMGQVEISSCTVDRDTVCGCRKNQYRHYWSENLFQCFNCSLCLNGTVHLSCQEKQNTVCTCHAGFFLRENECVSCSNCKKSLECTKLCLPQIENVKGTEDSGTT
# method_notes: yeast display SC50
attribute_measured: apparent Kd (screen) (pM)

[[record]]
binder = "R66H (designed binder) SMEEEVEKAAKEYEKKKKEAIEKHLEKLKAKDKEAAERFLKELEEAAKEYAKDEAKTMSEEEAKRHAKKYKEKVLLSELSEEEQKEIKEAEEKLVRTILKYVEEAAK"
attribute_measured = "apparent Kd (screen)"
unit_abbreviation = "pM"
assay_value = 24400


1. L75V (designed binder) SMEEEVEKAAKEYEKKKKEAIEKHLEKLKAKDKEAAERFLKELEEAAKEYAKDEAKTMSEEEAKRRAKKYKEKVVLSELSEEEQKEIKEAEEKLVRTILKYVEEAAK
2. T97H (designed binder) SMEEEVEKAAKEYEKKKKEAIEKHLEKLKAKDKEAAERFLKELEEAAKEYAKDEAKTMSEEEAKRRAKKYKEKVLLSELSEEEQKEIKEAEEKLVRHILKYVEEAAK
3. L25V (designed binder) SMEEEVEKAAKEYEKKKKEAIEKHVEKLKAKDKEAAERFLKELEEAAKEYAKDEAKTMSEEEAKRRAKKYKEKVLLSELSEEEQKEIKEAEEKLVRTILKYVEEAAK
Rank items: key apparent Kd (screen), increasing. Could you list the labels in the order requested?
1, 2, 3
